FYI, the data here is from paper PMC8844822.

Recorded rate (relative fold) values for a group of compounds are listed next.
Biological target: hSARM1 full length (Homo sapiens, UniProt Q6SZW1)
Construct: Human recombinant SARM1 full length proteins (wild-type and E642A mutant); made in house
Sequence (Q6SZW1 28-724): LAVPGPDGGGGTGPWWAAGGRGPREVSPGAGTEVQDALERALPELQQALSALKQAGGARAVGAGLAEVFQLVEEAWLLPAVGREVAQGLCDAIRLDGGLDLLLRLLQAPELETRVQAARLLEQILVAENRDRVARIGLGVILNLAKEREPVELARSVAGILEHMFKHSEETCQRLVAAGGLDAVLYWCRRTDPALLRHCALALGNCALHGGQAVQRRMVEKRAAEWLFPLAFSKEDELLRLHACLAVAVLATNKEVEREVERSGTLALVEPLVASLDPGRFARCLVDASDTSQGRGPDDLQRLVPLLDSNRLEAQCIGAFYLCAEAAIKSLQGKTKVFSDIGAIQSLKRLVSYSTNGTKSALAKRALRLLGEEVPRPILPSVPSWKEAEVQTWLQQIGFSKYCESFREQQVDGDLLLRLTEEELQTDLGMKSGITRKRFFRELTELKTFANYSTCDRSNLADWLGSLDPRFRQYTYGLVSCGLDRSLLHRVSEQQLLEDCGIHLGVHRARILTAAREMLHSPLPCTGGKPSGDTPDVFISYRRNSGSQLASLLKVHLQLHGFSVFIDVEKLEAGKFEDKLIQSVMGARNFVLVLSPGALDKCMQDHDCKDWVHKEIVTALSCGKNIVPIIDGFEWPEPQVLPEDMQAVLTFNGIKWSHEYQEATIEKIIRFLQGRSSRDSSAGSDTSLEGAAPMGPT
Assay: Base exchange reactions at neutral pH (HPLC)
Type: biochemical
Details: hSARM1 full length +VMN 0.05 mM; NADP […]; relative to NADP alone without trigger
Enter your answer as a number in fold; do not include the unit.

Record excerpt, results attached:
{"columns": ["COMPOUND", "UNITS SYMBOL", "rate (relative fold)"],
 "data": [
  ["O=C(NCc1ccc[n+]([C@@H]2O[C@H](COP(=O)(O)O)[C@@H](O)[C@H]2O)c1)Nc1ccc([N+](=O)[O-])cc1 [VMN, vacor mononucleotide]", "fold", 9.41],
  ["O=C(NCc1cccnc1)Nc1ccc([N+](=O)[O-])cc1", "fold", 10.11],
  ["CC(=O)c1cccnc1", "fold", 9.57]
]}

Ask: Recorded rate (relative fold) for O=C(O)c1cccnc1 with hSARM1 full length (Homo sapiens, UniProt Q6SZW1), please?
Reply: 10.04
